Values compiled from patent US20210388087A1.

Target: T1, Human CD3eg linker (human)
T1 construct: Single chain: CD3 epsilon and gamma subunits joined by a 29-mer linker, Flag-tag at the C-terminus; also called recombinant human CD3
T1 chain: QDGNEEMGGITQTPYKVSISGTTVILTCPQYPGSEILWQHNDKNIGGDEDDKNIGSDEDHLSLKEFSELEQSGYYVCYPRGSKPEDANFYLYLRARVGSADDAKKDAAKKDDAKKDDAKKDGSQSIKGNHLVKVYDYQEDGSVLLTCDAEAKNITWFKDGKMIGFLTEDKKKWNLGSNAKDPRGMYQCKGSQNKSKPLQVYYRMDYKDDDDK
Experiment: affinity relative to template H183/L072, single-mutation scan
MEASURED QUANTITY: fold change of affinity for CD3 (fold)
Write the value in fold as a bare number.

H183/L072 with S52Y (Kabat) in VL dBBDu072L (antibody, name in Kabat numbering, V domains shown, Single-mutation variant of H183L072) VH: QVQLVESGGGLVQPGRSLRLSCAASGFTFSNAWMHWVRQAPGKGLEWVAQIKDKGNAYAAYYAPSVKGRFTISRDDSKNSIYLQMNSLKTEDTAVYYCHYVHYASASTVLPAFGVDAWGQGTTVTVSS VL: DIVMTQSPLSLPVTPGEPASISCQASQELVHMNRNTYLHWYQQKPGQAPRLLIYKVYNRFPGVPDRFSGSGSGTDFTLKISRVEAEDVGVYYCAQGTSVPFTFGQGTKLEIK    1.5

Q) Find the recorded fold change of affinity for CD3 belonging to H183/L072 with F55Y (Kabat) in VL dBBDu072L (antibody, name in Kabat numbering, V domains shown, Single-mutation variant of H183L072) VH: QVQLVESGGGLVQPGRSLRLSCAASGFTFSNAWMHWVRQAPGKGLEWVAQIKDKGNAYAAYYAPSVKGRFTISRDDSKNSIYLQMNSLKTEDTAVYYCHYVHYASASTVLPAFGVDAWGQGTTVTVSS VL: DIVMTQSPLSLPVTPGEPASISCQASQELVHMNRNTYLHWYQQKPGQAPRLLIYKVSNRYPGVPDRFSGSGSGTDFTLKISRVEAEDVGVYYCAQGTSVPFTFGQGTKLEIK and report it.
A) 10.6
